# MEASURED_ON: purified interference factor(s) from serum of Donor B
# TEST: SPR, interference factor on CM5 chip
QUANTITY_MEASURED: binding as % of Reference Sequence (=100%)

BINDER	RESULT
Nanobody or Nanobody construct of SEQ ID NO: 43 (VHH) DVQLVESGGGLVQPGGSLRLSCAASGFILDYYAIGWFRQAPGKEREGVLCIDASDDITYYADSVKGRFTISRDNSKNTVYLQMNSLRPEDTAVYYCATPIGLSSSCLLEYDYDYWGQGTLVTVSSGGGGSGGGSEVQLLESGGGLVQPGGSLRLSCAASGFTFRSFGMSWVRQAPGKGPEWVSSISGSGSDTLYADSVKGRFTISRDNSKNTLYLQMNSLRPEDTAVYYCTIGGSLSRSSQGTLVTVSSA	20%
Nanobody or Nanobody construct of SEQ ID NO: 83 (VHH) VHH: EVQLVESGGGLVQPGGSLRLSCAASRSIGRLDRMGWYRHRPGEPRELVATITGGSSINYGDSVKGRFTISIDNSKNTVYLQMNSLRPEDAAVYYCNFNKYVTSRDTWGQGTLVTVSS	73%
Nanobody or Nanobody construct of SEQ ID NO: 67 (VHH) VHH: EVQLVESGGGLVQPGGSLRLSCAASRSIGRLDRMGWYRHRPGEPRELVATITGGSSINYGDSVKGRFTISIDNSKNTVYLQMNSLKPEDTAVYYCNFNKYVTSRDTWGQGTLVTVSS	117%
Nanobody or Nanobody construct of SEQ ID NO: 71 (VHH) VHH: EVQLVESGGGLVQPGGSLRLSCAASRSIGRLDRMGWYRHRPGEPRELVATITGGSSINYGDSVKGRFTISIDNSKNTVYLQMNSLRPEDTAVYYCNFNKYVTSRDTWGQGTLVTVSG	105%
Nanobody or Nanobody construct of SEQ ID NO: 80 (VHH) VHH: EVQLVESGGGLVQPGGSLRLSCAASRSIGRLDRMGWYRHRPGEPRELVATITGGSSINYGDSVKGRFTISIDNSKNTVYLQMNSLRPEDTAVYYCNFNKYVTSRDTWGQGTLVQVGG	5%
Nanobody or Nanobody construct of SEQ ID NO: 84 (VHH) VHH: EVQLVESGGGLVQPGGSLRLSCAASRSIGRLDRMGWYRHRPGEPRELVATITGGSSINYGDSVKGRFTISIDNSKNTVYLQMNSLRPEDTAVYYCNFNKYVTSRDTWGQGTLVTVGS	50%
Nanobody or Nanobody construct of SEQ ID NO: 68 (VHH) VHH: EVQLVESGGGLVQAGGSLRLSCAASRSIGRLDRMGWYRHRPGEPRELVATITGGSSINYGDSVKGRFTISIDNSKNTVYLQMNSLRPEDTAVYYCNFNKYVTSRDTWGQGTQVTVSS	115%
Nanobody or Nanobody construct of SEQ ID NO: 66 (VHH) VHH: EVQLVESGGGSVQPGGSLRLSCAASRSIGRLDRMGWYRHRPGEPRELVATITGGSSINYGDSVKGRFTISIDNSKNTVYLQMNSLRPEDTAVYYCNFNKYVTSRDTWGQGTLVTVSS	29%
